# MEASURED_TARGET: PLK1 (Homo sapiens, UniProt P53350)
# Construct: endogenous in cells
# Sequence (P53350 whole entry): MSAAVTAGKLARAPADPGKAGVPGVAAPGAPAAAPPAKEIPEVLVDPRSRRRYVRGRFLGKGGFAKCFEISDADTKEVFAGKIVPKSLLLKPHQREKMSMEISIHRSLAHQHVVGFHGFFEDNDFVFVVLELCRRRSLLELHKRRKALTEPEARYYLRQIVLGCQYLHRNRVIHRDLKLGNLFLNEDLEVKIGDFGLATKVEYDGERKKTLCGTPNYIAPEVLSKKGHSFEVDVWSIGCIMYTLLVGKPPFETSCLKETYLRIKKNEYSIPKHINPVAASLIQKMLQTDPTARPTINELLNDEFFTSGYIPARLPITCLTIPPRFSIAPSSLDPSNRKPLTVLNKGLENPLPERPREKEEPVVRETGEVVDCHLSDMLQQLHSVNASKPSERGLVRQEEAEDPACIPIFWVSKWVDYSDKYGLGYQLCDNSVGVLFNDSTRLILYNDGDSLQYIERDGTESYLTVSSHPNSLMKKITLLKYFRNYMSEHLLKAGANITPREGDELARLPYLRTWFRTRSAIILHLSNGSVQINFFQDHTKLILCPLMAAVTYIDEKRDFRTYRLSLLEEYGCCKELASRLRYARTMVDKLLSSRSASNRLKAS
# METHOD_NOTES: Western blot, protein degradation (DC50)
# Format: cell-based
# CONDITION_INFO: 6 h, western blot; read-out: PLK1 DC50 (6 h)
# Description: Cells were treated with the compound for a period of time, after that the cells were collected by centrifugation. After washing with PBS, the cells were lysed by adding RIPA buffer; the cell lysate were added to the loading buffer and then appropriate volume were taken and slowly added to the corresponding wells of the gel plate, and run the SDS-PAGE gel (4%-12%). […] The intensity of protein bands was analyzed quantitatively using ImageJ software.
READOUT_KIND: DC50

Ask | GET /values?readout=DC50&item= CC[C@@H]1C(=O)N(C)c2cnc(Nc3ccc(C(=O)NCCOCCOCCOCC(=O)Nc4cccc5c4CN(C4CCC(=O)NC4=O)C5=O)cc3OC)nc2N1Cc1ccc(Br)cc1 (stereo partly shown)
Reply | < 10 nM

Ask | Look up DC50 for this compound: CC[C@@H]1C(=O)N(C)c2cnc(Nc3ccc(C(=O)NC4CCN(CCNCCOCC(=O)Nc5cccc6c5CN(C5CCC(=O)NC5=O)C6=O)CC4)cc3OC)nc2N1Cc1ccc(Cl)s1 (stereo partly shown)
Reply | 10 to 100 nM

Ask | Dear colleague, I am looking for the recorded DC50 of the following compound: CC[C@@H]1CN(C)c2cnc(Nc3ccc(C(=O)NCCOCCOCCOCCNCCC(=O)Nc4cccc5c4CN(C4CCC(=O)NC4=O)C5=O)cc3OC)nc2N1Cc1ccc(Cl)s1 (stereo partly shown)
Reply | 10 to 100 nM

Ask | Could you share which DC50 value was measured for CC[C@@H]1c2c(C#N)ncn2-c2cnc(Nc3ccc(C(=O)NCCOCCOCCOCCC(=O)N[C@H](C(=O)N4C[C@H](O)C[C@H]4C(=O)NCc4ccc(-c5scnc5C)cc4)C(C)(C)C)cc3OC)nc2N1C1CCCC1 ?
Reply | > 1000 nM

Ask | I'd like to know its DC50. The compound in question is CC[C@@H]1C(=O)N(C)c2cnc(Nc3ccc(C(=O)NCc4cn(CCNCCC(=O)Nc5cccc6c5CN(C5CCC(=O)NC5=O)C6=O)nn4)cc3OC)nc2N1C1CCCC1 (stereo partly shown)
Reply | < 10 nM

Ask | Any idea what its DC50 is? The compound is CC[C@@H]1c2nncn2-c2cnc(Nc3ccc(C(=O)NCCOCCOCCOCCOCC(=O)N[C@H](C(=O)N4C[C@H](O)C[C@H]4C(=O)NCc4ccc(-c5scnc5C)cc4)C(C)(C)C)cc3OC)nc2N1C1CCCC1
Reply | > 1000 nM

Ask | Which DC50 is listed for CC[C@@H]1C(=O)N(C)c2cnc(Nc3ccc(C(=O)NCCCNCCCCCC(=O)Nc4cccc5c4CN(C4CCC(=O)NC4=O)C5=O)cc3OC)nc2N1C1CCCC1 (stereo partly shown) ?
Reply | < 10 nM

Ask | Form field: reported DC50 of CC[C@@H]1C(=O)N(C)c2cnc(Nc3ccc(C(=O)NCCCNCCCCC(=O)Nc4cccc5c4CN(C4CCC(=O)NC4=O)C5=O)cc3OC)nc2N1C1CCCC1 (stereo partly shown)
Reply | 10 to 100 nM

Ask | Which DC50 value is on record for CC[C@@H]1C(=O)N(C)c2cnc(Nc3ccc(C(=O)NCCCNCCCCCCCC(=O)Nc4cccc5c4CN(C4CCC(=O)NC4=O)C5=O)cc3OC)nc2N1Cc1ccc(Cl)s1 (stereo partly shown) ?
Reply | < 10 nM

Ask | Fill in: DC50 of CC[C@@H]1C(=O)N(C)C2CNC(Nc3ccc(C(=O)NCCCNCCCC(=O)Nc4cccc5c4CN(C4CCC(=O)NC4=O)C5=O)cc3OC)NC2N1Cc1ccc(Cl)s1 (stereo partly shown) is ___
Reply | 100 to 1000 nM

Data provenance is patent US20210369853A1.
